Molecular target: Amyloid-beta precursor protein (Homo sapiens) (UniProt P05067)
Sequence (P05067 whole entry): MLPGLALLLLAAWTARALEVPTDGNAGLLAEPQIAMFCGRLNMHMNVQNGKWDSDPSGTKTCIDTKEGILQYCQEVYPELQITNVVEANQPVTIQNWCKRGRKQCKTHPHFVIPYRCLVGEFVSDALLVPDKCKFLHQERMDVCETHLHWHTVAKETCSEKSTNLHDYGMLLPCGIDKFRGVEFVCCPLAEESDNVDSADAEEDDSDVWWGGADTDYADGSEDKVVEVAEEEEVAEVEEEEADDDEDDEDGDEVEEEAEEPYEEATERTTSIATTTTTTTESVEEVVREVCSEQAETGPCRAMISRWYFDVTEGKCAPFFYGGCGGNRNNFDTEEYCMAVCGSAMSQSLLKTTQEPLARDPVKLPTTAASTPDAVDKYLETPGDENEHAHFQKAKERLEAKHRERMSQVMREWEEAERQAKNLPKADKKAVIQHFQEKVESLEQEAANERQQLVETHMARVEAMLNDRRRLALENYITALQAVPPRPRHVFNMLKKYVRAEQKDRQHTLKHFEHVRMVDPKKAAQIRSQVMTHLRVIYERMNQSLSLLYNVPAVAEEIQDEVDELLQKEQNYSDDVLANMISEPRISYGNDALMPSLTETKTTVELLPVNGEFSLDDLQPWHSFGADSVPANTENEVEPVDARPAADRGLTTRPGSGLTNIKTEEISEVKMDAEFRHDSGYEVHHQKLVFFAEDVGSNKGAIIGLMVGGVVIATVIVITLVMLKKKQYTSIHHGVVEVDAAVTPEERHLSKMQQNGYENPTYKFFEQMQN
Test: Inhibition of self-induced Abeta(1 to 42) (unknown origin) aggregation at 25 uM after 24 hrs by Thioflavin T-based fluorometric assay
Metric: inhibition (%)

CCN(CCCCCCOc1ccc(-c2cc(=O)c3c(O)c(OC)c(OC)cc3o2)cc1)Cc1ccccc1OC: 71.4
CCN(CCCOc1ccc(-c2cc(=O)c3c(OC)c(OC)c(OC)cc3o2)cc1)Cc1ccccc1OC: 32.1
COc1ccccc1CN(C)CCCCOc1ccc(-c2cc(=O)c3c(OC)c(OC)c(OC)cc3o2)cc1: 37.1
CCN(CCCCOc1ccc(-c2cc(=O)c3c(OC)c(OC)c(OC)cc3o2)cc1)Cc1ccccc1: 31.3
CCN(CCCCOc1ccc(-c2cc(=O)c3c(O)c(OC)c(OC)cc3o2)cc1)Cc1ccccc1OC: 69.1
COc1cc2oc(-c3ccc(OCCCCN(C)Cc4ccccc4)cc3)cc(=O)c2c(OC)c1OC: 35.4
CCN(CCCCCCOc1ccc(-c2cc(=O)c3c(OC)c(OC)c(OC)cc3o2)cc1)Cc1ccccc1OC: 35.6
CCN(CCCOc1ccc(-c2cc(=O)c3c(O)c(OC)c(OC)cc3o2)cc1)Cc1ccccc1OC: 66.5
CCN(CCCCOc1ccc(-c2cc(=O)c3c(OC)c(OC)c(OC)cc3o2)cc1)Cc1ccccc1OC: 34.3
